src = ChEMBL document CHEMBL1130957

- STUDY TARGET: 5-hydroxytryptamine receptor 1A (Homo sapiens) (UniProt P08908)
- Sequence (P08908 whole entry): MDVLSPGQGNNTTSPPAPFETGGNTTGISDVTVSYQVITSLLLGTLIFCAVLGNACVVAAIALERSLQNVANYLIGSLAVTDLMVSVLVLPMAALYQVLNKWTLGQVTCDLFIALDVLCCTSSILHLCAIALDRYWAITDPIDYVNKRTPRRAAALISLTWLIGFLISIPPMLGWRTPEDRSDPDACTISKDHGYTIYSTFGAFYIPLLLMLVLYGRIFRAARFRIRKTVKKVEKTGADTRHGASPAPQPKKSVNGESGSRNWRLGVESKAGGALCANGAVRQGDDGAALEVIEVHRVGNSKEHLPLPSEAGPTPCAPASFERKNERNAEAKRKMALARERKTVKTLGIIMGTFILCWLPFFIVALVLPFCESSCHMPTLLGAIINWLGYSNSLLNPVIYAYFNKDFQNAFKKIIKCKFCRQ
- EXPERIMENTAL DETAILS: Agonistic efficacy in adenylyl cyclase assay in CHO cells expressing human 5-HT1A receptor (experiment 2)
- Type: functional, cell-based
Returns: string. Value is MET if measured Efficacy is below 30%, and NOT MET if it is greater than or equal to it.

c1ccc(CCCCN2CCN(c3cccc4c3OCCO4)CC2)cc1 = NOT MET
O=C1c2ccccc2S(=O)(=O)N1CCN1CCN(c2cccc3c2OCCO3)CC1 = NOT MET
O=C1c2ccccc2S(=O)(=O)N1CCCCN1CCN(c2cc(Cl)cc3c2OCCO3)CC1 = MET
O=C(NCCCCN1CCN(c2cccc3c2OCCO3)CC1)c1ccc(F)cc1 = NOT MET
O=C(CCCN1CCN(c2cccc3c2OCCO3)CC1)c1ccc(F)cc1 = NOT MET
O=C(NCCN1CCN(c2cccc3c2OCCO3)CC1)c1ccc(F)cc1 = NOT MET
O=C1c2ccccc2C(=O)N1CCCCN1CCN(c2cccc3c2OCCO3)CC1 = NOT MET

# evaluate next
**Q:** Just wondering, is Efficacy of `O=C1c2ccccc2S(=O)(=O)N1CCCCN1CCN(c2cccc3c2OCCO3)CC1` below 30%?
**A:** MET
